target: Ribosomal protein S6 kinase beta-1 (Homo sapiens, UniProt P23443, T412E); test: Inhibition of recombinant human p70S6K T412E mutant (1 to 421 residues) using KKRNRTLTV as substrate measured after 40 mins in presence of [gamma33P]ATP by radiometric scintillation counting analysis
Sequence (P23443 whole entry T412E, the tested form may be a part): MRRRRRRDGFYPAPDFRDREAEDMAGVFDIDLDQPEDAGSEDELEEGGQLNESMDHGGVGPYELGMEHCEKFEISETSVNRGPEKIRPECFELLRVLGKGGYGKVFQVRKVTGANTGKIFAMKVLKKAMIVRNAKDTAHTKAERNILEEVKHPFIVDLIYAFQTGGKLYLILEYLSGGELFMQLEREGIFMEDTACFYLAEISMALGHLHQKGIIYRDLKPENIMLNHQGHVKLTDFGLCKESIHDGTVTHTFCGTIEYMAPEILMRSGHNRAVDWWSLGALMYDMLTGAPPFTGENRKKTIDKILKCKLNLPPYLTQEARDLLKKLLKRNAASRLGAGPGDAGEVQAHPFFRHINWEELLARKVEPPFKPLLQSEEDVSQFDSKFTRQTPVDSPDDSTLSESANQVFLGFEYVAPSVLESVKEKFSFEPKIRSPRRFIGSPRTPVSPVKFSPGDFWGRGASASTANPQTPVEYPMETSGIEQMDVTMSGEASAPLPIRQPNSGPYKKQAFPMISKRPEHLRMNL
pIC50: −log10 of the molar value.
PROPERTY_NAME: pIC50

CN(C)c1ccc(C(=O)Nc2cccc(NC(=O)COc3ccc4c(=O)ccoc4c3)c2)cc1 :: < 5.00

----------
molecular target: Serine/threonine-protein kinase 24 (Homo sapiens); experiment: Inhibition of recombinant human MST3 (1 to 304 residues) using ERMRPRKRQGSVR as substrate measured after 40 mins in presence of [gamma33P]ATP by radiometric scintillation counting analysis
Sequence (Q9Y6E0 whole entry, the tested form may be a part): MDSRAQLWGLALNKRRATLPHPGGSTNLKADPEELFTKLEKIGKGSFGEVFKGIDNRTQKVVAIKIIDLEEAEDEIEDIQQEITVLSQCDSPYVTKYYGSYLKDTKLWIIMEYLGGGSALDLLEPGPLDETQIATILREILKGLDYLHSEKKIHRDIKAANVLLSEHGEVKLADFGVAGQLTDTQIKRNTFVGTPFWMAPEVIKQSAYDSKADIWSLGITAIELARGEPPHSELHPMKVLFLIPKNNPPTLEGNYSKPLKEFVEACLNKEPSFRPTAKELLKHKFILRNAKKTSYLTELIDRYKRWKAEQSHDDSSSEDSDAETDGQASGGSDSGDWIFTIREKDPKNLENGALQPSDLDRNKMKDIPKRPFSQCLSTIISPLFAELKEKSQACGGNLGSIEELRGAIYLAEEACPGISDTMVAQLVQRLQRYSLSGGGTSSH
pIC50: −log10 of the molar value.
PROPERTY_NAME: pIC50

CN(C)c1ccc(C(=O)Nc2cccc(NC(=O)COc3ccc4c(=O)ccoc4c3)c2)cc1 :: < 5.00
